Every entry's value here was drawn from patent US6521594.

ASSAY TARGET: αvβ5
ASSAY PROCEDURE: ELISA
Starred links: 1 amine or outer side, 2 acyl side, 3 side chain; linkers in the order of their positions; H or OH if unused. Positions of bridges follow the written chain, without caps; N, C: chain ends. Non-standard residues stand in square brackets, D forms with d. Primed or numbered codes have the meaning given here. Tyr(OMe)″ = O-methyl-tyrosine (Y-OMe, TyrOMe, O-Me-Tyr), COc1ccc(C[C@H](N[*:1])C(=O)[*:2])cc1; Y‑OMe = O-methyl-tyrosine, COc1ccc(C[C@H](N[*:1])C(=O)[*:2])cc1; code O = not defined here
Please go through the items and note down their pIC50.
Notebook: values listed as pIC50 are -log10 of the concentration (mol/L).

The binder identified as Ac-CNPRGD[Y‑OMe][code O]C-NH2 (disulfide 1-9 (inferred); reading uncertain) [Ac-CNPRGD(Y-OMe)OC-NH2] registered its pIC50 at 5.11

The binder identified as Ac-CNPRGD[Tyr(OMe)″]EC-NH2 (disulfide 1-9) [Ac-CNPRGD(Y-OMe)EC-NH2] registered its pIC50 at 5.02

The binder identified as Ac-CNPRGD[Tyr(OMe)″]KC-NH2 (disulfide 1-9) [Ac-CNPRGD(Y-OMe)KC-NH2] registered its pIC50 at 5.24

The binder identified as CNPRGDXXC (N-terminal acetyl; O-Me-Tyr at 7; Cit at 8; C-terminal amide) [Ac-CNPRGD(Y-OMe)(Cit)C-NH2] registered its pIC50 at 5.46
